Hi there, I'd appreciate the recorded inhibition for every entry that follows.
- system: Eukaryotic translation initiation factor 4H (Homo sapiens)
- assay comment: human eIF4H binding inhibitors, primary screen, translation initiation inhibitor project, biochemical, uHTS, fluorescence polarization (AID 2012);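 also: calls also rest on retests at 20 µM and on dose response follow-up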
- condition info: eIF4H fluorescence polarization binding assay; confirmation average; at 20 µM; stronger effect = higher value
In all, about 290,000 compounds went through this assay and about 2,700 (0.93%) were called active. Shown is part of a subset that was picked to be rich in actives.
One number for each entry, in %.

Worked set:
>>> df
                            molecule  uom  test_result
0             Cc1cc2ccccc2n1CCC(=O)O    %         80.5
1   Brc1ccc(CSc2ccc(-c3ccco3)nn2)cc1    %         -1.3
2  O=C(OCc1cc(Cl)ccc1OC(F)F)c1cccnc1    %         83.8

For every listed record, write down its inhibition.
1. O=C(CCS(=O)(=O)c1ccc(Br)cc1)NCCc1ccc(Cl)cc1
2. O=C1OCC2=C1C(c1ccccc1)CC(=O)N2c1cccc(F)c1 (stereo not drawn)
3. O=C(/C=C/Sc1ncn[nH]1)c1ccc(Cl)cc1
4. S=C(NCc1ccco1)Nc1ccc2c(c1)OCCO2
5. Cc1cc(C)c(C(N)=O)c(Cl)n1
6. CCn1c(/C=C/c2ccc([N+](=O)[O-])o2)nc2ccccc2c1=O
7. Fc1ccccc1CNC(=S)Nc1ccc(Cl)cc1

Key:
[67.7, 96.6, 65.7, 51.4, 93.1, 56.8, 106]

Dear colleague, could you please provide inhibition for the molecules listed below?
1. CCN(CC)c1ccc(/C=N/Nc2nc(C)cc(C)n2)c(O)c1
2. O=c1nc(N/N=C/c2ccco2)cn[nH]1
3. Cn1cccc1/C=N/NC(=O)c1ccc(OC(F)(F)C(F)F)cc1
4. CCCC(=O)C1CCN(Cc2ccccc2)CC1

Key:
87.6
73.4
56.1
89.5

Quick one: give me inhibition for each item below, same order please.
1. O=C1OC(/C=C/c2ccccc2)=NC/1=C/c1ccco1
2. O=C(CCCN1C(=O)/C(=C\c2ccco2)SC1=S)Nc1cccc2ccccc12

Key:
1: 4.3; 2: -11.3
